system: MOLM-13; assay: Cell growth inhibition, MOLM-13 leukemia cells (CellTiter-Glo); format: cell-based; details: Homo sapiens, MOLM-13, 96 h; 4 days; read-out: IC50 (nM) MOLM-13 Cell Line (CellTiter-Glo assay)
property.label: IC50 (nM)

Completed entries (count: 6):
# input Record lookup: for MOLM-13, what IC50 belongs to COc1ccc2c(Nc3nc(C)nc4[nH]c5cc(-c6c(C)noc6C)c(OC)cc5c34)nn(C)c2c1 ?
# output 109

# input Record lookup: for MOLM-13, what IC50 belongs to COc1cc2c(cc1-c1c(C)noc1C)[nH]c1ccnc(Nc3cc(C4CC4)nn3C)c12 ?
# output 12

# input Record lookup: for MOLM-13, what IC50 belongs to COc1cc2c(cc1-c1c(C)noc1C)[nH]c1nc(C)nc(Nc3cnn4cccnc34)c12 ?
# output 14.6

# input Record lookup: for MOLM-13, what IC50 belongs to COc1cc2c(cc1-c1c(C)noc1C)[nH]c1nc(C)nc(Nc3c4c(nn3C3CC3)CCC4)c12 ?
# output 3.4

# input Record lookup: for MOLM-13, what IC50 belongs to COc1cc2c(cc1-c1c(C)noc1C)[nH]c1nc(C)nc(Nc3cc(C4CC4)nn3C)c12 ?
# output 11.7

# input Record lookup: for MOLM-13, what IC50 belongs to COc1cc2c(cc1-c1c(C)noc1C)[nH]c1nc(C)nc(Nc3cccc4[nH]ccc34)c12 ?
# output 37

P = COc1cc2c(cc1-c1c(C)noc1C)[nH]c1nc(C)nc(Nc3cc(C)ccc3C)c12
Q = COc1cc2c(cc1-c1c(C)noc1C)[nH]c1nc(C)nc(Nc3c(C)noc3C)c12
R = COc1cc2c(cc1-c1c(C)noc1C)[nH]c1nc(C)nc(Nc3c(C)nn4ccccc34)c12
# input Which order do these items take when sorted by rising IC50? List them. Give me the labels in the order the question wants.
# output R, P, Q
(R: 5.1 nM, P: 39 nM, Q: 318 nM)

Cited source for all entries: patent US9580430B2
